Values from PubChem BioAssay (Tox21)

Experiment: qHTS RealTime-Glo MT Cell Viability Assay in HepG2 cells - 0 hour (AID 1224889); further: nearly all actives have a fitted effect of over 50% in size
Details: RealTime-Glo luminescence; series mostly up to 76.8 µM
Inconclusive results are not listed. The source made the active and inactive calls. The call rests on the fitted dose curve; in most records, active means well fitted cell-killing curve with a large enough effect in the repeat runs; inconclusive means weak or mixed curves, or effect the other way; inactive means flat fitted curve, though single readings scatter.
Labels: 1 (yes) (active), 0 (no) (inactive)

Compound	Assigned label
CCOP(=O)(NC(C)C)Oc1ccc(SC)c(C)c1 (configuration not stated)	0 (no)
Clc1ccc(COC(Cn2ccnc2)c2ccc(Cl)cc2Cl)cc1 (configuration not stated)	0 (no)
[Cd+2].[Cl-].[Cl-]	0 (no)
N#Cc1ccccc1Cl	0 (no)
CCOP(=S)(OCC)SCS(=O)(=O)CC	0 (no)
CCCCOP(=O)(CCCC)OCCCC	0 (no)
O=c1[nH]c2ccccc2n1CCCN1CCC(n2c(=O)[nH]c3cc(Cl)ccc32)CC1	0 (no)
CC(C)(COCC1CO1)COCC1CO1 (configuration not stated)	0 (no)
Cc1cc(C)cc(OP(=O)(Oc2cc(C)cc(C)c2)Oc2cc(C)cc(C)c2)c1	0 (no)
CCCCCCCCCCCCCN1CC(C)OC(C)C1 (configuration not stated)	0 (no)
O=[N+]([O-])c1c2ccccc2cc2ccccc12	0 (no)
CC(=O)c1ccc(-c2ccccc2)cc1	0 (no)
BrCBr	0 (no)
CC(=[OH+])/C=C(/C)[O-].CC(=[OH+])/C=C(\C)[O-].CC(=[OH+])/C=C(\C)[O-].[Al]	0 (no)
FC(Cl)(Cl)Cl	0 (no)
C=CC(=O)OCCCCOC(=O)C=C	0 (no)
O=S(=O)(c1ccc(Cl)cc1)c1ccc(Cl)cc1	0 (no)
Clc1ccc(C(c2ccc(Cl)cc2)C(Cl)(Cl)Cl)cc1	0 (no)
Clc1ccc(C(Cl)(Cl)Cl)c(Cl)c1	0 (no)
CC(C)(c1ccc(O)c(-c2ccccc2)c1)c1ccc(O)c(-c2ccccc2)c1	0 (no)
O=C(CCCN1CCC2(CC1)C(=O)NCN2c1ccccc1)c1ccc(F)cc1	0 (no)
O=c1ssc(Cl)c1Cl	1 (yes)
CN(CCCC(=O)c1cccnc1)N=O	0 (no)
CCCCCCCCCCCCCCCC[N+](C)(C)C	0 (no)
C[C@H]1CC[C@@H]2[C@@H](C)[C@H]3[C@H](C[C@H]4[C@@H]5CC=C6CC(O[C@@H]7O[C@H](CO)[C@H](O)[C@H](O[C@@H]8O[C@H](CO)[C@@H](O)[C@H](O)[C@H]8O)[C@H]7O[C@H]7O[C@@H](C)[C@H](O)[C@@H](O)[C@H]7O)CC[C@]6(C)[C@H]5CC[C@]34C)N2C1 (some centres not stated)	0 (no)
C=CCOC(N)=O	0 (no)
O=C(CCl)C(Cl)Cl	0 (no)
ClC1=C(Cl)[C@]2(Cl)[C@@H]3[C@@H]4C[C@@H]([C@H]5O[C@@H]45)[C@@H]3[C@@]1(Cl)C2(Cl)Cl	0 (no)
O=C(CCl)Nc1ccccc1	0 (no)
Clc1ccc(Oc2ccccc2)cc1	0 (no)
O=[N+]([O-])O.O=[N+]([O-])O.[Cd]	0 (no)
CCN	0 (no)
CCCN(CC)CC1COC2(CCC(C(C)(C)C)CC2)O1 (configuration not stated)	0 (no)
COP(=O)(CCC(=O)NCO)OC	0 (no)
CCOC(=O)CC(=O)CCl	0 (no)
CCOc1cc(C(C)(C)C)ccc1C1COC(c2c(F)cccc2F)=N1 (configuration not stated)	0 (no)
CC(=[OH+])/C=C(/C)[O-].CC(=[OH+])/C=C(\C)[O-].CC(=[OH+])/C=C(\C)[O-].[Fe]	0 (no)
CCOC(=O)C1(c2ccccc2)CCN(CCC(C#N)(c2ccccc2)c2ccccc2)CC1	0 (no)
CC(c1ccc(O)cc1)c1ccc(O)cc1	0 (no)
S=C=Nc1cccc2ccccc12	0 (no)
c1ccc2cc3c(cc2c1)-c1cccc2cccc-3c12	0 (no)
ClC1=C(Cl)C2(Cl)C3C(Cl)C(Cl)CC3C1(Cl)C2(Cl)Cl (configuration not stated)	0 (no)
